# Test system: G-clamp-N3 (biotin conjugate)
# assay_details: pull-down binding Z-score (relative to library population); higher = stronger binding
# test_conditions: RNA library: Library-1 (pre-miRNA loops + repeats)
Label criterion met when pull-down binding Z-score is at or above -1; otherwise label criterion not met.

// known answers, use as guide
CUUUUGGAAAAUAGAAAAG [hsa-mir-3184]: criterion met
ACAGAGUGAGAUGGUCUUGUUUUGU [hsa-mir-5684]: criterion met
UUUUGCUUGUGUCUCUCCGCUCUGAGCAAUC [hsa-mir-96]: criterion met

In: Does pull-down binding Z-score meet or surpass -1 for CAGAGGGAGGCCAAGAAGACCUCUG [hsa-mir-4793] ?
Out: criterion met

In: pull-down binding Z-score >= -1 for UAGGGCGCGGAGGGCGGACCGGGAA [hsa-mir-638] ?
Out: criterion met

In: Reported pull-down binding Z-score reaches at least -1 for GAUGCUGUCUAUUCUAAAGGUAC [hsa-mir-101-1] ?
Out: criterion met

In: Entry CUAUGGCCCCCCUCCUCUCUGAAAGCAAGGCCACUUG [hsa-mir-8081] : is its pull-down binding Z-score no less than -1?
Out: criterion not met

In: Dear colleague, could you confirm whether AGGUCUCCUGGCAU [hsa-mir-4256] has pull-down binding Z-score at or above -1?
Out: criterion met

In: Hello, I need to know if UUGAACUUCAUUUCUCAUGCUCA [hsa-mir-6870] has measured pull-down binding Z-score not below -1. Thanks!
Out: criterion not met

In: Is pull-down binding Z-score at least -1? Consider ACUCCUAGGUCACGGAAGU [hsa-mir-6838]
Out: criterion met

In: Could you verify whether the entry GGCUCUGGGUCCUGCUCCUUAGAGCA [hsa-mir-2467] shows pull-down binding Z-score of no less than -1?
Out: criterion met

====

# Test system: G-clamp-N3 (biotin conjugate)
# assay_details: pull-down binding Z-score (relative to library population); higher = stronger binding
# test_conditions: RNA library: Library-1 (pre-miRNA loops + repeats)
reported_endpoint: pull-down binding Z-score
Numbers only.

GCUUCUGCUGCAUGAUCUCCGAGUCCCUGGGGGUAGAGAUGAUGGGGCACUGGGAGGU [hsa-mir-1282]: 0.676
CCCAAGCAGGCUUUGUGUGAGCAGUGAGGCUAUUUAUUCACUUGGGUGCGAGCUCACACGAAGCCUGCUUGGG [hsa-mir-6839]: 1.44
GGCAGGUGUGGUUGGAGGAAGCAGCCUGAACCUGCC [hsa-mir-6778]: 0.663

# input for lookup
In: Which pull-down binding Z-score value belongs to UGGACAGAAAUUUCCUUUUGAGGAAAUCUUUCCC [hsa-mir-4308] ?
Out: -0.543

====

# Test system: TO-N3-2 (biotin conjugate)
# assay_details: pull-down binding Z-score (relative to library population); higher = stronger binding
# test_conditions: RNA library: Library-2
Note to self: values exactly at -1 are y. So pull-down binding Z-score at or above -1 is y, below is n.

CUUGAACAAUGGAACCUAGUAAUAGGUUUCCUAUUCCUUACAUGGAUUUGUCUUCUACAAUUUGCCUAUGCCAACAGGAAUAGGUUUUUGUAUAUAAUUAAG: n
UGUUUGUGUCUAAACUAUCAAACG [hsa-mir-122]: y
GCUUUCUUUGGC [IAV_invivo_NS1_NEP_8_Motif_2+IAV_invivo_NS1_NEP_8_Motif_2]: n
CAGACAACACAUUUGUGUCUG: n

In: Hello, I need to know if GUUUGCAAGGGGUGUUUCUGUCCAUGGUCAGGC [hsa-mir-4283-1_4283-2] has measured pull-down binding Z-score not below -1. Thanks!
Out: y

In: Can UGUAAGCACAAGCUGAUGAGUACGAACUUAUGUACUCAUUCGUUUCGGAAGAGACAGGUACGUUAAUAGUUAAUAGCGUACUUCUUUUUCUUGCUUUCG [DMSMaPseq_invitro_SARS-CoV-2_Multi_80_ComplexLevel_1] be said to have pull-down binding Z-score at or above -1?
Out: y

In: Is reported pull-down binding Z-score greater than or equal to -1 here: UGCUAUUACUUGUAUUUAUUUGUAAUGCA [hsa-mir-548ab]
Out: n

In: Reported pull-down binding Z-score reaches at least -1 for CAAGUCCGUCUUCCUGAGAGGUUUG [hsa-mir-133b] ?
Out: y

====

# Tested on: TO-N3 (biotin conjugate)
# assay_details: pull-down binding Z-score (relative to library population); higher = stronger binding
# test_conditions: RNA library: Library-2
Hi there, I'd appreciate the recorded pull-down binding Z-score for every entry that follows.
Answers are plain numbers.

Some sequences with recorded pull-down binding Z-score:
GCCACUAGUCUCUAGUCAGUGUGUUAAUCUUACAACCAGAACUCAAUUACCCCCUGCAUACACUAAUUCUUUCACACGUGGU [SHAPE_invivo_SARS-CoV-2_Motif_403]: 0.388
AAAUGAGAGUUAGCCAGGAGCUUUGCAUACUCA [hsa-mir-6801]: -0.00733
AGCUUUAUGUAUUCUGAAGUUAUUGAAAAUAAGAGCU [hsa-mir-3140]: -1.1

In: Fill blank: measured pull-down binding Z-score of the sequence AGAGCGUGGGCUGGGGUUCAGGGACACCCUCU [hsa-mir-1229] is ____.
Out: 1.57

====

# Test system: TO-3-N3 (biotin conjugate)
# assay_details: pull-down binding Z-score (relative to library population); higher = stronger binding
# test_conditions: RNA library: Library-2
reported_endpoint: pull-down binding Z-score
Numbers only.

The following sequences have reported results that may help.
AGGUUCUGCUGGCUGAGAACCU [hsa-mir-3667]: -0.215
CCUUCUGUAUACAUGUAUACAGGAGGAAGG [hsa-mir-4716]: 0.507
GUGAUUGUCUUCCUCACUCAAUCAG [hsa-mir-4704]: 0.145

// each sequence listed below needs its pull-down binding Z-score
1. AGAUAGUGAAGUAGAUUAGCAUCUACU [hsa-mir-18a]
2. ACAAGUUGCAAUUUACAAGUCUUGAAAUUCCACGUAGGAAUGUGGCAACUUUACAAGCUGAAAAUGUAACAGGACUCUUUAAAGAUUGU
3. GAUUUGUCUUCUACAAUUUGCCUAUGCCAACAGGAAUAGGUUUUUGUAUAUAAUUAAGUUAAUUUUCCUCUGGCUGUUAUGGCCAGUAACUUUAGCUUGUUU
4. GCUGAGGCUUCUAAGAAGCCUCGGC
5. GAAGCUGUGAAGCCACAGAUGGGCUUU [hsa-mir-30a]
6. AGUUCGCUUUUAUUAAUGACGAAUA [hsa-mir-410]
7. GUUGGAUAAUGAUGCACUCAACAACAUUAUCAAC

Out:
[-0.484, -0.302, -0.15, -0.572, -0.0778, -0.624, -0.974]

Please report pull-down binding Z-score for every entry that follows.
1. GCUUUGUCCAAAAUGCCCUUAAUGGGAACGGGGAUCCAAAUAACAUGGACAAAGC [IAV_invivo_M1_M2_7_Motif_6+IAV_invivo_M1_M2_7_Motif_6]
2. GUUGUAGACGGUUGUAAUUCAUCAACUUGUAUGAUGUGUUACAAACGUAAUAGAGCAAC
3. GAAGGGGAGUUUCCCUCUAUUCCCUUC [hsa-mir-3679]
4. GGUUCGUGUCUUUAGCUAUAGAUGCUUACC

Out:
1. 0.0624
2. -0.88
3. 0.265
4. 0.877

====

# Test system: G-clamp-N3 (biotin conjugate)
# assay_details: pull-down binding Z-score (relative to library population); higher = stronger binding
# test_conditions: RNA library: Library-1 (pre-miRNA loops + repeats)
Values of pull-down binding Z-score greater than or equal to -0.2 map to Y; values below map to N.

Use these answered entries as a reference point.
GAUGGGAUUAGAAACCAUAUGUCUCAUC [hsa-mir-3617]: Y
CCUCUCGGGAACUACAAGUCCCAGGGGG [hsa-mir-2861]: Y
GUCCAUUAGGCUUUGUUAUGGAAACUUCUCCUGAUC [hsa-mir-635]: N

# ---- query sequence ----
In: Check the entry UCAGAUAUUUAAGUUAACAGUAUUUGA [hsa-mir-580] : does pull-down binding Z-score equal or exceed -0.2?
Out: Y

====

# Test system: TO-3-N3-2 (biotin conjugate)
# assay_details: pull-down binding Z-score (relative to library population); higher = stronger binding
# test_conditions: RNA library: Library-2
So I've got a bunch of sequences here, and I need their pull-down binding Z-score values.
Numbers only.

Observe how each entry below is paired with its result.
GGAAGGGAGCCCCAUUUACAGUGGUAACUUCCUUUCC [hsa-mir-5006]: 0.679
CUCUCGUGUCCACUAGCAGGCAGGUUUUCUGACACAGG [hsa-mir-604]: 0.313
UAUAUACUGAUGUAAUUUUCCUUGGAUUUAUAUGCAGUACUGAG [hsa-mir-6130]: 0.252
UUCCGGUGAUUAUCACAGCCAUGCCUUUACCUCCAGAA [hsa-mir-4493]: -0.0994

For each of the items listed, what is its pull-down binding Z-score?
1. AGUUGAACACUUGUUGGGACAACCU [hsa-mir-4421]
2. GCUGUGAGUUGGAUACUUACCUG [U1snRNP5ss-13]
3. UCCGAUUUACAGGA [DMSMaPseq_invitro_SARS-CoV-2_Motif_227]
4. GGAGAGUAUGGUCACAGCAGCAUCCUCC [hsa-mir-6780a]
5. GAGCUUCGUGUACAUUAUCUAUUAGAAAAUGAAGUAC [hsa-mir-4724]
6. CAGAGUGGGCUCACCUCUCGCCCACACUG [hsa-mir-6760]
7. CCAUGGUGUGCUCUGAUCCCCCUGUGG [hsa-mir-6848]

Out:
0.156
0.194
-0.0117
-0.326
-0.033
-0.336
0.0413

Provide the reported pull-down binding Z-score of each entry below, same order.
1. CCAUGUAAUCUUUGG [hsa-mir-1302-5]
2. UGUUUAACUCCUCUCCACGUGAACA [hsa-mir-499a]
3. UGUGGUAAACAAGCUACA
4. UGGCACAGAUCCAAUACCUUCUGUCCCC [hsa-mir-6810]

Out:
0.112
-0.0532
-0.468
-0.361
